Biological target: T1, human CD71 extracellular domain (human, UniProt P02786 89-760)
T1 construct: also called hCD71; human CD71-ECD
T1 sequence (P02786 89-760): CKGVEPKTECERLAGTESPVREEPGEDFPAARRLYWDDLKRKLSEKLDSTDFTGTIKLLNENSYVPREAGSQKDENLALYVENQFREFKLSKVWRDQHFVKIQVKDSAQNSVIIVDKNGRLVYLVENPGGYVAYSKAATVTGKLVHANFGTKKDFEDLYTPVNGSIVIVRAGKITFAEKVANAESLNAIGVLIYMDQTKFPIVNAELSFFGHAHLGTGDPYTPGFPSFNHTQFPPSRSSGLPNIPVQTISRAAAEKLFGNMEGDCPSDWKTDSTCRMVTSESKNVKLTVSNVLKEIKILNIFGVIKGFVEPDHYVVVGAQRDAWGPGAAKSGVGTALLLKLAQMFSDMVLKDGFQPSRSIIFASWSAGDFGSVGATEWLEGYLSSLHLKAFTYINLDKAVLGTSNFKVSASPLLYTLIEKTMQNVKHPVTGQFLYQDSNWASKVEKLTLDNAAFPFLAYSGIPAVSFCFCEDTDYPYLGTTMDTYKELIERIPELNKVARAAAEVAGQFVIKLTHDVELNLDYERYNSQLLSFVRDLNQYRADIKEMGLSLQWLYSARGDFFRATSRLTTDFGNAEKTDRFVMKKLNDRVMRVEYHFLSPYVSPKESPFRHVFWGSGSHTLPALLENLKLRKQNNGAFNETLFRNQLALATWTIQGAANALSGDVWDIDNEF
Assay: primary ELISA; further: test concentration or dose not given here
As shown below, each of these binders has a reported RLU value.
endpoint: RLU

binder | result
CD71-binding FN3 domain of SEQ ID NO: 146 (designed binder) MSLPAPKNLVVSRVTEDSARLSWTAPDAAFDSFDIGYFENTYEGEAIVLTVPGSERSYDLTGLKPGTEYVVWIGGVKGGSYSSPLSAIFTT | 4.34e+06 RLU
CD71-binding FN3 domain of SEQ ID NO: 135 (designed binder) MSLPAPKNLVVSRVTEDSARLSWTAPDAAFDSFFIGYLEPQSPGEAIALYVPGSERSYDLTGLKPGTEYNVTIQGVKGGFPSEPLIANFTT | 5.86e+06 RLU
